Reference for the values: PubChem BioAssay AID330

Tested on: P388 leukemia ip, CD2F1 mice, survival T/C
Test Name: NCI In Vivo Anticancer Drug Screen. Data for tumor model P388 Leukemia (intraperitoneal) in CD2F1 (CDF1) mice
Details: endpoint: median survival time; dose: 400.0 mg/kg/injection; schedule: Q04DX003 (ip); vehicle: saline; higher = longer survival
Toxic doses and inconclusive results are not listed.
Observable: T/C

- Molecule: "COC(=O)C(C(=O)OC)=S1C=CC=C1"
  Test System: "P388 leukemia ip, CD2F1 mice, survival T/C"
  Result: "106 % of control"
- Molecule: "O=C1CN=C(c2ccccc2)c2cc(Cl)ccc2N1CC1CC1"
  Test System: "P388 leukemia ip, CD2F1 mice, survival T/C"
  Result: "101 % of control"
- Molecule: "OCC(O)COCCCCCCCCCCCCCC1C=CCC1 (stereo not given)"
  Test System: "P388 leukemia ip, CD2F1 mice, survival T/C"
  Result: "96 % of control"
- Molecule: "Cn1c(=O)c2c(nc(/N=C/c3ccc([N+](=O)[O-])cc3)n2C)n(C)c1=O"
  Test System: "P388 leukemia ip, CD2F1 mice, survival T/C"
  Result: "93 % of control"
- Molecule: "CN1C(Cc2ccccc2)N(S(=O)(=O)C2C=CC=CC=C2)CC1(C)C (stereo not given)"
  Test System: "P388 leukemia ip, CD2F1 mice, survival T/C"
  Result: "93 % of control"

* * *

Test system: P388 leukemia ip, CD2F1 mice, survival T/C
Test Name: NCI In Vivo Anticancer Drug Screen. Data for tumor model P388 Leukemia (intraperitoneal) in CD2F1 (CDF1) mice
Details: endpoint: median survival time; dose: 25.0 mg/kg/injection; schedule: Q01DX005 (ip); vehicle: saline with Tween-80; higher = longer survival
Inconclusive results and toxic doses are left out.
Observable: T/C

- Smiles String: "CC(C)NC(=O)OCc1c(COC(=O)NC(C)C)c(S(=O)(=O)c2ccccc2)n2c1CCC2"
  Test System: "P388 leukemia ip, CD2F1 mice, survival T/C"
  Result: "89 % of control"
- Smiles String: "O=[N+]([O-])c1cccn2nc(COCCO)nc12"
  Test System: "P388 leukemia ip, CD2F1 mice, survival T/C"
  Result: "94 % of control"
- Smiles String: "CN(C)c1ccc2c(c1)C(=O)N(OS(C)(=O)=O)C2=O"
  Test System: "P388 leukemia ip, CD2F1 mice, survival T/C"
  Result: "111 % of control"
- Smiles String: "CSCCCNC(=O)c1csc(-c2csc(CCNC(=O)[C@@H](NSc3ccccc3[N+](=O)[O-])[C@@H](C)O)n2)n1"
  Test System: "P388 leukemia ip, CD2F1 mice, survival T/C"
  Result: "95 % of control"
- Smiles String: "Nc1cccc2c1-c1ccccc1C2=O"
  Test System: "P388 leukemia ip, CD2F1 mice, survival T/C"
  Result: "92 % of control"

* * *

Tested on: P388 leukemia ip, CD2F1 mice, survival T/C
Test Name: NCI In Vivo Anticancer Drug Screen. Data for tumor model P388 Leukemia (intraperitoneal) in CD2F1 (CDF1) mice
Details: endpoint: median survival time; dose: 25.0 mg/kg/injection; schedule: Q01DX009 (ip); vehicle: Klucel (hydroxypropylcellulose) (HPC)
Inconclusive results and toxic doses are left out. The calls were made as follows: active = survival T/C of 150% or more; inactive = T/C below 125% in these data.
Possible outcomes: active, inactive

- Smiles String: "O=C(CBr)N1c2ccccc2Sc2c1ccc1ccccc21"
  Class Name: "inactive"
- Smiles String: "[N-]=[N+]=C1N=CN=C1c1ncn[nH]1"
  Class Name: "active"
- Smiles String: "Clc1nc(Cl)nc(Nc2ccccc2Cl)n1"
  Class Name: "inactive"
- Smiles String: "Cc1nnc(CN2CCOCC2)n1-c1ccc(Cl)cc1C(=O)c1ccccc1"
  Class Name: "inactive"
- Smiles String: "N#CSc1ccc2nc(N)sc2c1"
  Class Name: "inactive"
- Smiles String: "O=C1Nc2ccccc2/C1=C/c1ccc(Cl)c(Cl)c1"
  Class Name: "inactive"
- Smiles String: "Nc1nc(Cl)cc(Cl)n1"
  Class Name: "inactive"

* * *

Test system: P388 leukemia ip, CD2F1 mice, survival T/C
Test Name: NCI In Vivo Anticancer Drug Screen. Data for tumor model P388 Leukemia (intraperitoneal) in CD2F1 (CDF1) mice
Details: endpoint: median survival time; dose: 50.0 mg/kg/injection; schedule: Q01DX009 (ip); vehicle: other; higher = longer survival
Toxic doses and inconclusive results are not listed.
# Lookup of reported T/C keyed by entry

- Compound: "Cc1cc2cc3c(=O)[nH]c(=O)cc-3n(CC(O)C(O)C(O)CO)c2cc1C (centres undefined)"
  T/C: "96 % of control"
- Compound: "O=[N+]([O-])c1c(Cl)cc(Cl)c(-c2c(Cl)cc(Cl)c([N+](=O)[O-])c2Cl)c1Cl"
  T/C: "106 % of control"
- Compound: "OC1CSCc2ccccc21 (centres undefined)"
  T/C: "102 % of control"
- Compound: "CCOC(=O)C1C/C(=N\\OC(C)=O)c2ccc(OC)c(OC)c2C1 (centres undefined)"
  T/C: "98 % of control"

* * *

System: P388 leukemia ip, CD2F1 mice, survival T/C
Test Name: NCI In Vivo Anticancer Drug Screen. Data for tumor model P388 Leukemia (intraperitoneal) in CD2F1 (CDF1) mice
Details: endpoint: median survival time; dose: 240.0 mg/kg/injection; schedule: Q01DX005 (ip); vehicle: saline with Tween-80; higher = longer survival
Description: The antitumor activity of compounds was measured in mice bearing transplantable tumors. Survival or tumor size were measured and the results are expressed as the measurement made in the treated group (T) divided by the measurement made in the vehicle treated control group (C). The tumor model used in this assay is P388 Leukemia (intraperitoneal) in CD2F1 (CDF1) mice
Inconclusive results and toxic doses are left out.
Below, each of the compounds is paired with its reported T/C value.
Observable: T/C

- Smiles String: "COC(=O)c1nnn(-c2cc(Cl)ccc2Cl)c1C(=O)c1ccc(OC)cc1"
  Result: "89 % of control"
- Smiles String: "CCOC(=O)C1=C(Nc2cccc3c(NC4=C(C(=O)OCC)C(=O)CO4)cccc23)OCC1=O"
  Result: "98 % of control"
- Smiles String: "c1ccc(OCc2nn3c(-c4ccccc4)nnc3s2)cc1"
  Result: "93 % of control"
- Smiles String: "CCOC(=O)N(CCN(C(=O)OCC)C1CCCCC1)C1CCCCC1"
  Result: "89 % of control"
- Smiles String: "[N-]=[N+]=Nc1ccnc2cc(Cl)ccc12"
  Result: "104 % of control"
- Smiles String: "Nc1ncnc2c1c(-c1ccccc1)cn2-c1ccc(I)cc1"
  Result: "96 % of control"
- Smiles String: "Cc1cccnc1I"
  Result: "101 % of control"

* * *

Tested on: P388 leukemia ip, CD2F1 mice, survival T/C
Test Name: NCI In Vivo Anticancer Drug Screen. Data for tumor model P388 Leukemia (intraperitoneal) in CD2F1 (CDF1) mice
Details: endpoint: median survival time; dose: 400.0 mg/kg/injection; schedule: Q01DX009 (ip); vehicle: saline with Tween-80; higher = longer survival
Description: The antitumor activity of compounds was measured in mice bearing transplantable tumors. Survival or tumor size were measured and the results are expressed as the measurement made in the treated group (T) divided by the measurement made in the vehicle treated control group (C). The tumor model used in this assay is P388 Leukemia (intraperitoneal) in CD2F1 (CDF1) mice
Toxic doses and inconclusive results are not listed.

- Molecule: "OC(CBr)C(O)C(O)C(O)CBr (centres undefined)"
  T/C: "117 % of control"
- Molecule: "O=C1CC(c2ccc(Cl)cc2Cl)Oc2ccc(Cl)cc21 (centres undefined)"
  T/C: "96 % of control"
- Molecule: "CN(C)c1ccc(C(=O)c2ccc(N(C)C)cc2)cc1"
  T/C: "116 % of control"
- Molecule: "N#Cc1cnn(C(N)=O)c1N"
  T/C: "100 % of control"
- Molecule: "O=c1cc(CO)[nH]cc1O"
  T/C: "112 % of control"
- Molecule: "CC(C)(C)N1CCC1C(=O)O (centres undefined)"
  T/C: "87 % of control"
- Molecule: "ICC1COC(CI)CO1 (centres undefined)"
  T/C: "90 % of control"
- Molecule: "CCCCC(SC(CC)(C(C)=O)c1ccccc1)C(N)=O (centres undefined)"
  T/C: "90 % of control"
- Molecule: "CC[C@H](CC[C@@H](C)C1CC[C@H]2[C@@H]3CC=C4C[C@@H](OP(=O)(N5CC5)N5CC5)CC[C@]4(C)[C@H]3CC[C@]12C)C(C)C (some centres undefined)"
  T/C: "98 % of control"

* * *

System: P388 leukemia ip, CD2F1 mice, survival T/C
Test Name: NCI In Vivo Anticancer Drug Screen. Data for tumor model P388 Leukemia (intraperitoneal) in CD2F1 (CDF1) mice
Details: endpoint: median survival time; dose: 400.0 mg/kg/injection; schedule: Q01DX001 (ip); vehicle: saline; higher = longer survival
Toxic doses and inconclusive results are not listed.
Observable: T/C

- Compound: "COc1cc(C=NC2CCCCC2)cc(OC)c1OC"
  Result: "99 % of control"
- Compound: "C=C1CC2(C=C(C)CCC2C(C)C)OC1=O (stereo not given)"
  Result: "101 % of control"
- Compound: "CCN(CC)P(c1ccccc1)N(CC)CC"
  Result: "104 % of control"
- Compound: "N=c1oc2ccccc2cc1C(=O)NNC(=O)c1ccncc1"
  Result: "102 % of control"
- Compound: "COS(=O)(=O)C(F)(F)F"
  Result: "111 % of control"
